molecular target: LeCCD1a (Solanum lycopersicum, UniProt Q6E4P5); experiment: In vitro LeCCD1a enzyme assay (recombinant cell-free extract, colourimetric, apo-8′-carotenal substrate); settings: E. coli cell extract with recombinant CCD; read-out: LeCCD1a (9,10/9′,10′) IC50
Sequence (Q6E4P5 1-545): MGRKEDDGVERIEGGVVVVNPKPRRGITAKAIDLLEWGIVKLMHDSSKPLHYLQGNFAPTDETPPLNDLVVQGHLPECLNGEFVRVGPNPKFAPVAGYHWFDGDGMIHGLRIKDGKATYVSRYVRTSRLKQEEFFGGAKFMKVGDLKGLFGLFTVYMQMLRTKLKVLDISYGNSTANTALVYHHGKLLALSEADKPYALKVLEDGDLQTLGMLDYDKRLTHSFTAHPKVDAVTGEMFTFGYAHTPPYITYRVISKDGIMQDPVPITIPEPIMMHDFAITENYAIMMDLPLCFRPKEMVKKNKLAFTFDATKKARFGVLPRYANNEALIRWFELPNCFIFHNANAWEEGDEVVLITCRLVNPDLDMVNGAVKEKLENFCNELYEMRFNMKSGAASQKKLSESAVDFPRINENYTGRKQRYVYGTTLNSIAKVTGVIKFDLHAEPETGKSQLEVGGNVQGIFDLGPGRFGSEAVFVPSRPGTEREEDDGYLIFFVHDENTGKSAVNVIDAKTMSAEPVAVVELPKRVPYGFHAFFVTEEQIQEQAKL
pIC50: −log10 of the molar value.
Would you mind telling me the reported pIC50 of each entry?

Prompt: Please look up its pIC50: O=C(Cc1ccc(O)cc1)N(O)Cc1ccc(F)cc1 [Compound D2]
Response: 6.05 to 6.10

Prompt: What pIC50 value was documented for this molecule, COC(=O)CN(C/C=C/c1ccc(OC)c(OC)c1)Cc1ccc(F)cc1 [Abamine, reference compound] ?
Response: 3.68

Prompt: Item O=C(Cc1ccc(O)c(O)c1)N(O)Cc1ccc(F)cc1 has what recorded pIC50?
Response: 6.05 to 6.10

Prompt: # get_value(readout='pIC50', item= O=C(Cc1ccc(O)cc1)N(O)Cc1ccccc1 [Compound D1] )
Response: 6.05 to 6.10

---

Molecular target: LeNCED1 (Solanum lycopersicum, UniProt O24023)
Construct: made in house; host or cells: E. coli Rosetta (DE3); crude cell-free extract
Sequence (O24023 17-605): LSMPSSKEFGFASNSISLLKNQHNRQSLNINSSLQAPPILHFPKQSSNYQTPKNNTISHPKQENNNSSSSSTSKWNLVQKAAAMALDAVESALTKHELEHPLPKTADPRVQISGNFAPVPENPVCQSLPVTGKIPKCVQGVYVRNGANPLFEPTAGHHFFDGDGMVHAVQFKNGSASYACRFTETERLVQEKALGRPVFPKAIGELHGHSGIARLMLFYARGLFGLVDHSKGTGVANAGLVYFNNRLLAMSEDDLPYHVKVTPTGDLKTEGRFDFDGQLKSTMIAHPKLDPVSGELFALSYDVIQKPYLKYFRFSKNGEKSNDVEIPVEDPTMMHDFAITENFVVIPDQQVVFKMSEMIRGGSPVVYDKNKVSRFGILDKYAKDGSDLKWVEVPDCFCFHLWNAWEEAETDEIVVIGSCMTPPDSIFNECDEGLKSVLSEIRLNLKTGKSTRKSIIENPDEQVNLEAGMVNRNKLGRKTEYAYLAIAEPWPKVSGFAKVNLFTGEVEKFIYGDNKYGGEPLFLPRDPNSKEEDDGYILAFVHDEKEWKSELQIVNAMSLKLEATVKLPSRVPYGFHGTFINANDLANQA
Assay: In vitro NCED enzyme assay (recombinant LeNCED1 cell-free extract, HPLC, 9′-cis-neoxanthin substrate)
Assay type: biochemical, tomato
Conditions: 100 μM inhibitor; E. coli cell extract with recombinant CCD
Description: In vitro NCED enzyme assay—We over-expressed LeNCED1 in E. coli, as an N-terminal His6-fusion protein (supplemental methods). Cell-free extract containing recombinant LeNCED1 was prepared in 100 mM bis-tris buffer (pH 6.7). […] NCED inhibition assays contained 1-100 μM inhibitor; inhibition was calculated from the product formation after 15 min, compared to a control assay with no inhibitor present. […]
// label = label 1 if LeNCED1 (11,12) Inhibition @ 100 μM (%) is not less than 10%, otherwise label 0

Prompt: Is LeNCED1 (11,12) Inhibition @ 100 μM (%) for COc1ccc(CCC(=O)N(O)Cc2ccccc2)cc1OC at or above 10%?
Response: label 1

Prompt: Does the compound COc1ccc(C=CC(=O)NO)cc1OC have recorded LeNCED1 (11,12) Inhibition @ 100 μM (%) that is 10% or more?
Response: label 1

Prompt: # check: LeNCED1 (11,12) Inhibition @ 100 μM (%) of COc1ccc(C(=O)N(O)Cc2ccc(F)cc2)cc1OC is greater than or equal to 10%
Response: label 0

Prompt: Does the reported LeNCED1 (11,12) Inhibition @ 100 μM (%) for COc1ccc(C(=O)N(O)Cc2ccccc2)cc1OC fall at or above the 10% mark?
Response: label 0

Prompt: # bool: LeNCED1 (11,12) Inhibition @ 100 μM (%) of COc1ccc(C=CC(=O)NO)cc1 [Compound D13, 4-Methoxyphenylpropenoyl hydroxamic acid] >= 10%
Response: label 1

Prompt: Hi, just wondering whether CCCCCCCCN(O)C(=O)CCc1ccc(OC)cc1 shows LeNCED1 (11,12) Inhibition @ 100 μM (%) of 10% or higher.
Response: label 1

Prompt: Has CCCCCCCCN(O)C(=O)CCc1ccc(OC)c(OC)c1 a recorded LeNCED1 (11,12) Inhibition @ 100 μM (%) greater than or equal to 10%?
Response: label 1

Prompt: Check if LeNCED1 (11,12) Inhibition @ 100 μM (%) >= 10% (inclusive). Item: COC(=O)CN(C/C=C/c1ccc(OC)c(OC)c1)Cc1ccc(F)cc1 [Abamine, reference compound]
Response: label 1

---

Would you kindly list inhibition at 100 µM for each of these molecules?
molecular target: LeCCD1a (Solanum lycopersicum, UniProt Q6E4P5); assay: In vitro LeCCD1a enzyme assay (recombinant cell-free extract, colourimetric, apo-8′-carotenal substrate); format: biochemical, tomato (Solanum lycopersicum); conditions: read-out: LeCCD1a (9,10/9′,10′) Inhibition @ 100 μM (%)

Prompt: What value of measured inhibition at 100 µM is listed for COc1ccc(CC(=O)N(O)Cc2ccc(F)cc2)cc1OC ?
Response: > 95%

Prompt: Consider the molecule COc1ccc(CCC(=O)N(O)Cc2ccccc2)cc1 and give its measured inhibition at 100 µM.
Response: > 95%

Prompt: Record request: inhibition at 100 µM value, item O=C(Cc1ccc(O)cc1)N(O)Cc1ccccc1 [Compound D1]
Response: > 95%

Prompt: What measured inhibition at 100 µM goes with O=C(Cc1ccc(O)c(O)c1)N(O)Cc1ccc(F)cc1 ?
Response: > 95%

Prompt: What measured inhibition at 100 µM goes with O=C(Cc1ccc(O)cc1)N(O)Cc1ccc(F)cc1 [Compound D2] ?
Response: > 95%

Prompt: Form field: reported inhibition at 100 µM of COc1ccc(C(=O)N(O)Cc2ccccc2)cc1
Response: > 95%

Prompt: Report inhibition at 100 µM for O=C(Cc1ccc2c(c1)OCO2)N(O)Cc1ccc(F)cc1 please.
Response: > 95%

Prompt: Entry under review: COc1ccc(CC(=O)N(O)Cc2ccc(F)cc2)cc1 . Reported inhibition at 100 µM?
Response: > 95%

Prompt: Name the reported inhibition at 100 µM value associated with the molecule COc1ccc(CC(=O)N(O)Cc2ccccc2)cc1OC
Response: > 95%

Prompt: What value of measured inhibition at 100 µM is listed for COc1ccc(C(=O)N(O)Cc2ccc(F)cc2)cc1 ?
Response: > 95%

---

Exercise: state measured LeCCD1a (9,10/9′,10′) Inhibition @ 100 μM (%) for each of the compounds provided.
Target: LeCCD1a (Solanum lycopersicum, UniProt Q6E4P5)
Assay: In vitro LeCCD1a enzyme assay (recombinant cell-free extract, colourimetric, apo-8′-carotenal substrate)
Type: biochemical, tomato (Solanum lycopersicum)
Conditions: 100 μM inhibitor; E. coli cell extract with recombinant CCD
Description: In vitro LeCCD1a enzyme assay—We over-expressed LeCCD1a in E. coli, as a GST-fusion protein (supplemental methods). The in vitro assay of LeCCD1a was based on reported methods (37), and was carried out in a 200 μl total volume in a 96-well microtitre plate, with the signal detected at 485 nm. […] 50 μl of cell-free extract containing recombinant LeCCD1a was added, and the reactions monitored over 30 min at 20° C. […]
Value expressed in %; do not type the unit.

Prompt: I would be grateful if you could share the reported LeCCD1a (9,10/9′,10′) Inhibition @ 100 μM (%) for COc1ccc(C=CC(=O)NO)cc1 [Compound D13, 4-Methoxyphenylpropenoyl hydroxamic acid] .
Response: 46

Prompt: I am curious: what LeCCD1a (9,10/9′,10′) Inhibition @ 100 μM (%) value has been reported for COc1ccc(CCC(=O)N(O)Cc2ccccc2)cc1OC [Compound D8] ?
Response: 61

Prompt: Look up LeCCD1a (9,10/9′,10′) Inhibition @ 100 μM (%) for this compound: COc1ccc(C=CC(=O)NO)cc1OC [Compound D12]
Response: 26

Prompt: Which LeCCD1a (9,10/9′,10′) Inhibition @ 100 μM (%) reading was recorded for the compound COc1ccc(C(=O)N(O)Cc2ccccc2)cc1OC [Compound F3] ?
Response: 50

Prompt: Returns the measured LeCCD1a (9,10/9′,10′) Inhibition @ 100 μM (%) for the input compound. Input: CCCCCCCCN(O)C(=O)CCc1ccc(OC)cc1 [Compound D11]
Response: 53

Prompt: Give the measured LeCCD1a (9,10/9′,10′) Inhibition @ 100 μM (%) of CCCCCCCCN(O)C(=O)CCc1ccc(OC)c(OC)c1 [Compound D10] .
Response: 65

Prompt: Requested field: LeCCD1a (9,10/9′,10′) Inhibition @ 100 μM (%). Item: COc1ccc(C(=O)N(O)Cc2ccc(F)cc2)cc1OC [Compound F4]
Response: 0
